Target: recombinant SARS-CoV RBD (SARS-CoV, UniProt P59594 306-527)
Assay: BLI
pKd: −log10 of the molar value.
Reported pKd values for a set of binders

- BINDER: "ADI-75700 (antibody, V domains shown) VH: QVQLQQWGAGLLKPSETLSLTCGVYDGSFSDYFWNWIRQPPGKGLEWIGELTHTGSTNYNPSLKSRVTILADTSKSQFSLNLSSVTAADTAVYYCARGDFYSTRLAFDLWGQGTTVTVSS VL: EIALTQSPATLSLSPGERATLSCRASQSVSTYLAWYQQKPGQAPRLLIYDASKRATGIPARFNGSGSGTDFTLTISSLEPEDFAVYYCQQRSTWPTFGGGTKVDIK"
  pKd: 7.21
- BINDER: "ADI-75859 (antibody, V domains shown) VH: QVQLVQSGGGVGQPGRSLRLSCAASGFTFGHYGMHWVRQAPGKGLEWVAAIIYDGSDKQYADSVKGRFTISRDNSKNTVYLQMNSLRPEDTAIYFCAKLGGLYCSGGNCFSGYFDYWGQGTLVTVSS VL: ETTLTQSPSSLSASVGDRVTITCRASQGISNSLAWYQQKPGKAPKLLLYAASTLESGVPSRFSGSGSGTDFTLTIASLQPEDFATYYCQQYYSSVRFTFGQGTILDLN"
  pKd: 6.65
- BINDER: "ADI-75738 (antibody, V domains shown) VH: QVQLQQWGAGLLKPSETLSLTCGVHDGAFSGYFWNWIRQSPVKGLEWIGEVTHSGNTNYNPSLKSRVTMSVDASKNEFSLNLTSVTAADTAVYYCARGDFYSTRLAFDVWGQGSMVTVSS VL: EIVLTQSPATLSLSPGERATLSCRASQSVSTYLAWYQQRPGQAPRLLIYDASNRATGIPARFSGSGSETDFTLTISSLEPEDFAVYYCQQRSNWLTFGGGTKVEIK"
  pKd: 6.83
- BINDER: "ADI-75754 (antibody, V domains shown) VH: QVQLVQSGGDLVQPGGSLRLSCVASGFTFSNYEMNWVRQGPGKGLEWISYISTSGSTYYYADSVKGRFTISRDNARNSLYLQMDSLRVEDTAIYYCLTHPQPQYVRPTQVVWFDPWGQGTLVTVSS VL: EMTMTQSPGTLSLSPGERATLSCRASESVSSEYLAWHQQRPGQAPRLLIYGASSRPTGIPDRFSGSGSGTDFTLTISRLEPEDFAVYYCHQFASAPITFGQGTRLEIK"
  pKd: 8.85

Recorded values, source patent US20250223339A1.
